The following compounds are shown together with reported melting point values.

Examples from the recorded data:
COMPOUND	QUANTITY_MEASURED	VALUE_MEASURED
C=C(CC)c1cn(-c2c(Cl)cc(C(F)(F)F)cc2Cl)nc1C#N	melting point	104 to 105 °C
O=C(O)c1cc(-n2c(-c3cccs3)cc3c2CCCC3)ccc1O	melting point	211 to 213 °C
CCCCC1Cc2c(n(-c3ccc(F)cc3)c3ncccc3c2=O)O1 (stereo unspecified)	melting point	243 to 245 °C
COc1ccc2[nH]c(CCCCCCCCCCCCCCO)cc2c1	melting point	68 to 69 °C
CCCn1c(=O)c2[nH]c(-c3cc(C)n(CC(=O)Nc4ccc(F)cc4)n3)nc2n(CCC)c1=O	melting point	205 to 207 °C

Moving on to another compound below.
Input: Look up melting point: CC(C)(C)c1ccc2c(C#N)ccc(C#N)c2c1
Output: 58 to 59 °C

* * *

QUANTITY_MEASURED: melting point

COMPOUND	melting point
CCC(=O)NC[C@H]1CN(c2ccc3c(c2)CCCc2cn[nH]c2-3)C(=O)O1	233 to 235 °C
CCOC(=O)c1cccc(-c2nc(-c3ccc(C(C)C)cc3)cs2)c1	91 to 92 °C

We next turn to a different compound, shown below.
Input: Consider the compound shown here: COc1ccccc1N1CCN(CCNC(=O)c2nsc3ccccc23)CC1 What is its recorded melting point?
Output: 107 to 110 °C

* * *

QUANTITY_MEASURED: melting point

COMPOUND	melting point
Cn1c(C#N)c(-c2ccc(F)cc2)c2cccnc2c1=O	231 to 232 °C

Input: Endpoint output: melting point of CCOC(=O)C(F)(F)C(=O)[C@H](Cc1ccccc1)NC(=O)Cn1c(-c2cccc(C)c2)ncc(NC(=O)OCc2ccccc2)c1=O . Value?
Output: 138 to 140 °C

Input: Next compound: CN(C)C=C1CN=C(c2ccccc2)c2cc(Cl)ccc2C1=O
Output: 179 to 180 °C

Input: What would you report for O=C(OCCN1CCC(Nc2nc3ccccc3n2Cc2ccc(F)cc2)CC1)N1CCOCC1 ?
Output: 145 °C

* * *

Below, each entry is listed with its recorded melting point.

As a guide, the following entries are already answered.
Cc1c(CC(=O)O)cccc1C(=O)c1ccc(Cl)cc1 152 °C
CC(=O)c1cc2cc(C(C)(C)C)ccc2o1 99 to 101 °C
Cc1cc(-c2cc3cc(OCCNC[C@H](O)c4cccc(Cl)c4)ccc3o2)no1 108 to 110 °C

Input: Give its melting point value. Item: COc1cc(CC(C#N)=CN2CCOCC2)cc(OC)c1N
Output: 128 to 129 °C

Input: Thanks! And CCCc1oc(-c2ccccc2)nc1COc1ccc(C=O)cc1 ?
Output: 76 to 77 °C

Input: Next: O=C1Nc2ccccc2N(C(=O)Cc2ccccc2)c2cscc21
Output: 165 to 168 °C

* * *

QUANTITY_MEASURED: melting point

COMPOUND	QUANTITY_MEASURED	VALUE_MEASURED
O=Cc1cc2cc(OCc3ccccc3)ccc2nc1Cl	melting point	180 to 182 °C

Input: Given the compound C=CCN1C(=O)c2ccccc2Oc2nc(Cl)ccc21 , what is its reported melting point?
Output: 110 to 112 °C

Input: Entry to check: COc1ccccc1-c1cnn2ccc(N3CCN(C(=O)OC(C)C)CC3)nc12
Output: 57 to 59 °C

Input: Moving on to the next compound: CCOP(=O)(OCC)C1(P(=O)(OCC)OCC)CC(C(=O)c2ccccc2[N+](=O)[O-])=NN1
Output: 111 to 112 °C

Input: Note, next up: Cc1nc2c(N)nc3ccccc3c2n1CC(C)(C)OCCS(C)(=O)=O
Output: 253 to 255 °C

Input: Queued: Cc1cc(I)ccc1Nc1c(C(=O)O)cc(F)c(F)c1F
Output: 206 to 210 °C

Input: // next record CSc1c(O[C@H]2CC[C@@H](N3C(=O)c4ccccc4C3=O)CC2)ccc2[nH]ncc12
Output: 211 to 212 °C

Input: Note, next up: COc1ccc(N2CCN(c3ccc(C)cc3)CC2)c(-c2ccc(N(C)C)cc2)n1
Output: 170 to 173 °C

Input: Moving on to COC(=O)CC(=O)NC(N)Cc1ccccc1 (stereo unspecified)
Output: 98 to 102 °C

Input: And for CCOC(=O)c1cnnn1C[C@@H]1CN(c2ccc(N3CCC(=CC#N)CC3)c(F)c2)C(=O)O1 ?
Output: 70 to 72 °C

Input: Query O=C(NCC1CC1)c1cc2nccnc2c(Cl)c1NC(=O)c1cc(C(F)(F)F)nn1-c1ncccc1Cl next
Output: 180 to 183 °C

Input: Same question, CC(C)(C)NC(=O)c1ccccc1NS(=O)(=O)C(F)(F)F this time
Output: 108 to 110 °C

Input: Same for CN(C(N)=O)C1c2ccccc2Oc2ccccc21
Output: 199 to 202 °C

Input: For CCOC(=O)c1cccc2c1Cc1c-2[nH]c2ccc(Br)cc12 then?
Output: 198 to 200 °C

* * *

Residues, ends and D or L forms follow the SMILES beside them. *: point of attachment. Boc = CC(C)(C)OC(=O)*; Bn = c1ccc(C*)cc1
QUANTITY_MEASURED: melting point

MOLECULE	melting point
CCc1cc2c(s1)-n1c(nnc1CNC(=O)c1cc3ccccc3n1CC(=O)O)CN=C2c1ccccc1Cl	222 to 223 °C
CC1SC(=O)NN=C1c1ccc2c(c1)C(=NN(C)c1ccccc1)C(=O)N2 (stereo not drawn)	260 °C
N#Cc1ccccc1-c1cccc(Cc2ccc(OCc3ccccc3)cc2)c1Nn1cnnc1	171 to 173 °C
O=C1c2ccccc2CN1CCN1CCC(c2noc3cc(F)ccc23)CC1	166 to 168 °C
CN(C)N=Nc1c[nH]c(=O)[nH]c1=O	166 to 167 °C
CS(=O)(=O)c1ccc(-c2sc(-c3ccccc3Cl)nc2-c2ccc(F)cc2F)cc1	166 to 169 °C
CCOC(=O)c1cn(CC)c2cc(Cl)c(Br)cc2c1=O	166 °C

Proceeding to the next molecule to report its melting point.
Input: // melting point lookup, key: COC(=O)C(Cc1ccc(OCc2ccccc2)cc1)NC(=O)C(COCc1ccccc1)NC(=O)C(Cc1c[nH]c2ccccc12)NC(=O)OC(C)(C)C (stereo not drawn) (Boc-Trp-Ser(Bn)-Tyr(Bn)-OMe; configuration not given here)
Output: 130 to 131 °C

* * *

This listing pairs compounds with measured melting point.

Input: Which melting point is listed for CNC(C)=C(C(C)=O)S(=O)(=O)NC(=O)Nc1nc(C)cc(C)n1 ?
Output: 192 °C

Input: Next record, please: COc1ccc(-c2nc3nccnc3[nH]2)c(OCC#N)c1
Output: 232 to 233 °C

Input: And the next one, Cc1ccc(S(=O)(=O)Oc2ccc(C=O)cc2OS(=O)(=O)c2ccc(C)cc2)cc1 ?
Output: 95 to 97 °C

Input: Subsequent entry: CSc1ccc(N)c(C(=O)NN)c1
Output: 124 to 127 °C

Input: // repeat for Cn1ncnc1COc1nn2c(-c3ccccc3F)nncc2c1-c1ccco1 and report
Output: 188 to 190 °C

Input: How about this compound: CCc1cc(NCc2ccc(-c3ccccc3-c3nnn[nH]3)cc2)n2nccc2n1
Output: 177 to 179 °C

Input: How about this compound: CC(=O)c1ccc(-c2ccc(O)c(F)c2)cc1
Output: 155 to 158 °C

Input: Same again, this time with Cc1nc(-c2ccc(OC(C)C)c([N+](=O)[O-])c2)sc1C(=O)OC(C)C
Output: 91 to 92 °C

Input: Note, next up: NP(N)(=O)NC(=O)C=Cc1ccccc1
Output: 176 to 178 °C

Input: And the next one, O=C1CC(c2cccc(-c3nc(CN4CCOCC4)co3)c2)=Nc2ccc(-n3cccc3)cc2N1 ?
Output: 166 to 167 °C

* * *

QUANTITY_MEASURED: melting point

Some solved entries appear below for comparison.
COMPOUND	melting point
O=C(c1ccc(Oc2ccc(S(=O)c3ccc(Oc4ccc(C(=O)C(Cl)(Cl)Cl)cc4)cc3)cc2)cc1)C(Cl)(Cl)Cl	154 to 156 °C
CC1(C)C(=O)C(C)(C)c2cc(C(O)CN3CCN(c4nsc5ccccc45)CC3)ccc21 (centres undefined)	189 to 191 °C
Oc1cnccc1CCCOc1cccnc1Nc1cccc(Br)c1	138 to 141 °C

Moving on to the next compound.
Input: Field request: melting point | item: N#CC(C#N)(CCSC(F)(F)C(F)Cl)CC(F)(F)C(F)(F)C(F)(F)C(F)F (centres undefined)
Output: 78 to 80 °C

* * *

QUANTITY_MEASURED: melting point

Input: Data request, read-out melting point, for CS(=O)(=O)Nc1cccc2c(-c3ccccc3)c([N+](=O)[O-])oc12
Output: 169 to 172 °C

Input: Next up: COC(=O)c1ccc(Cl)cc1SCCC(=O)O
Output: 133 to 136 °C

Input: Now give it for CCC1CC(=O)N(CCc2ccc(N)cc2)N=C1c1ccc(OC)c(OC)c1 (configuration not stated) too.
Output: 112 °C

Input: Now the same for CCCN(CCC)C(=O)Cn1c(-c2ccc(OC)cc2)nc2cccnc21
Output: 127 to 129 °C

Input: Cool, now CC(=O)OC1C(=O)NC1c1ccco1 (configuration not stated)
Output: 118 to 119 °C
